Below is a list of entries, each paired with its recorded IC50 value.
# Test system: VCaP cells
# protocol.details: Anti-proliferative toxicity against prostate cancer cell line Vcap (CCK8)
# Type: cell-based, human
# settings: Homo sapiens, 72 h, 3 days, CCK8

Solved cases (8 shown):
C[C@]12C=CC(=O)N[C@@H]1CC[C@@H]1[C@@H]2CC[C@]2(C)[C@@H](C(=O)Nc3cccc(OCCCCCCNc4ccc5c(c4)C(=O)N(C4CCC(=O)NC4=O)C5=O)c3)CC[C@@H]12 (stereo partly drawn): > 1000 nM
C[C@]12C=CC(=O)N[C@@H]1CC[C@@H]1[C@@H]2CC[C@]2(C)[C@@H](C(=O)NCCCNc3ccc4c(c3)C(=O)N(C3CCC(=O)NC3=O)C4=O)CC[C@@H]12 (stereo partly drawn): > 1000 nM
C[C@]12C=CC(=O)N[C@@H]1CC[C@@H]1[C@@H]2CC[C@]2(C)[C@@H](C(=O)Nc3cccc(N[C@@H]4CCC[C@@H](Nc5cccc6c5C(=O)N(C5CCC(=O)NC5=O)C6=O)C4)c3)CC[C@@H]12 (stereo partly drawn): ≤ 0.1 nM
C[C@]12C=CC(=O)N[C@@H]1CC[C@@H]1[C@@H]2CC[C@]2(C)[C@@H](C(=O)NCCCCCNc3ccc4c(c3)C(=O)N(C3CCC(=O)NC3=O)C4=O)CC[C@@H]12 (stereo partly drawn): > 1000 nM
C[C@]12C=CC(=O)N[C@@H]1CC[C@@H]1[C@@H]2CC[C@]2(C)[C@@H](C(=O)Nc3cccc(N[C@@H]4CCC[C@@H](Nc5cccc6c5CN(C5CCC(=O)NC5=O)C6=O)C4)c3)CC[C@@H]12 (stereo partly drawn): 10 to 1000 nM
[2H][C@@]1(Nc2cccc(NC(=O)[C@H]3CC[C@H]4[C@@H]5CC[C@H]6NC(=O)C=C[C@]6(C)[C@H]5CC[C@]34C)c2)CCC[C@@]([2H])(Nc2cccc3c2C(=O)N(C2CCC(=O)NC2=O)C3=O)C1 (stereo partly drawn): ≤ 0.1 nM
CN1C[C@@H](Nc2cccc(NC(=O)[C@H]3CC[C@H]4[C@@H]5CC[C@H]6NC(=O)C=C[C@]6(C)[C@H]5CC[C@]34C)c2)C[C@H](Nc2cccc3c2C(=O)N(C2CCC(=O)NC2=O)C3=O)C1 (stereo partly drawn): 10 to 1000 nM
C[C@]12C=CC(=O)N[C@@H]1CC[C@@H]1[C@@H]2CC[C@]2(C)[C@@H](C(=O)Nc3cccc(OC4CCC(Nc5cccc6c5C(=O)N(C5CCC(=O)NC5=O)C6=O)C4)c3)CC[C@@H]12 (stereo partly drawn): 10 to 1000 nM

Param readout = IC50; param system = VCaP cells; param query = C[C@]12C=CC(=O)N[C@@H]1CC[C@@H]1[C@@H]2CC[C@]2(C)[C@@H](C(=O)Nc3cccc(NCCNc4cccc5c4C(=O)N(C4CCC(=O)NC4=O)C5=O)c3)CC[C@@H]12 (stereo partly drawn) ; response: value > 1000 nM

###

# System: PC-3 cells
# protocol.details: Anti-proliferative toxicity against prostate cancer cell line PC-3 (CCK8)
# Type: cell-based, human
# settings: 3 days
property.label: IC50

Consider the molecule C[C@]12CCC(=O)N[C@@H]1CC[C@@H]1[C@@H]2CC[C@]2(C)[C@@H](C(=O)Nc3cccc(N[C@@H]4CCC[C@@H](Nc5cccc6c5C(=O)N(C5CCC(=O)NC5=O)C6=O)C4)c3)CC[C@@H]12 (stereo partly shown) and give its measured IC50. 10 to 1000 nM

###

# Tested on: PC-3 cells
# protocol.details: Anti-proliferative toxicity against prostate cancer cell line PC-3 (CCK8)
# Assay type: cell-based, human
# settings: Homo sapiens, 72 h, 3 days
property.label: IC50

Here's what some known entries look like.
C[C@]12C=CC(=O)N[C@@H]1CC[C@@H]1[C@@H]2CC[C@]2(C)[C@@H](C(=O)Nc3cccc(N[C@@H]4CCC[C@@H](Nc5ccc(F)c6c5C(=O)N(C5CCC(=O)NC5=O)C6=O)C4)c3)CC[C@@H]12 (stereo partly drawn): 0.0001 to 0.01 µM
C[C@]12C=CC(=O)N[C@@H]1CC[C@@H]1[C@@H]2CC[C@]2(C)[C@@H](C(=O)NCCCCCCCNc3cccc4c3C(=O)N(C3CCC(=O)NC3=O)C4=O)CC[C@@H]12 (stereo partly drawn): > 1 µM
C[C@]12C=CC(=O)N[C@@H]1CC[C@@H]1[C@@H]2CC[C@]2(C)[C@@H](C(=O)Nc3cccc(OCCCCCCCNc4cccc5c4C(=O)N(C4CCC(=O)NC4=O)C5=O)c3)CC[C@@H]12 (stereo partly drawn): > 1 µM

Endpoint output: IC50 of C[C@]12C=CC(=O)N[C@@H]1CC[C@@H]1[C@@H]2CC[C@]2(C)[C@@H](C(=O)Nc3cccc(OCCCCCNc4cccc5c4C(=O)N(C4CCC(=O)NC4=O)C5=O)c3)CC[C@@H]12 (stereo partly drawn) . Value? > 1 µM

May I ask what IC50 has been recorded for C[C@]12C=CC(=O)N[C@@H]1CC[C@@H]1[C@@H]2CC[C@]2(C)[C@@H](C(=O)NCCCNc3ccc4c(c3)C(=O)N(C3CCC(=O)NC3=O)C4=O)CC[C@@H]12 (stereo partly drawn) ? > 1 µM

// returns reported IC50 for input C[C@]12C=CC(=O)N[C@@H]1CC[C@@H]1[C@@H]2CC[C@]2(C)[C@@H](C(=O)Nc3ccc(OCCCCCCNc4ccc5c(c4)C(=O)N(C4CCC(=O)NC4=O)C5=O)cc3)CC[C@@H]12 (stereo partly drawn) > 1 µM

Query (molecule): C[C@]12C=CC(=O)N[C@@H]1CC[C@@H]1[C@@H]2CC[C@]2(C)[C@@H](C(=O)Nc3cccc(N4CCC(CN5CCN(c6ccc7c(c6)C(=O)N(C6CCC(=O)NC6=O)C7=O)CC5)CC4)c3)CC[C@@H]12 (stereo partly drawn) ; field requested: IC50 > 1 µM

What value of measured IC50 is listed for `CC(C)(C)C(=O)OCN1C(=O)CC[C@H](N2C(=O)c3cccc(N[C@@H]4CCC[C@@H](Nc5cccc(NC(=O)[C@H]6CC[C@H]7[C@@H]8CC[C@H]9NC(=O)C=C[C@]9(C)[C@H]8CC[C@]67C)c5)C4)c3C2=O)C1=O` ? 0.0001 to 0.01 µM

What does the record list as IC50 for C[C@]12C=CC(=O)N[C@@H]1CC[C@@H]1[C@@H]2CC[C@]2(C)[C@@H](C(=O)Nc3ccc(OCCCCCNc4cccc5c4C(=O)N(C4CCC(=O)NC4=O)C5=O)cc3)CC[C@@H]12 (stereo partly drawn) ? > 1 µM

###

# Tested on: VCaP cells
# protocol.details: Anti-proliferative toxicity against prostate cancer cell line Vcap (CCK8)
# Assay type: cell-based, human
# settings: Homo sapiens, 72 h, 3 days, CCK8
pIC50: −log10 of the molar value.
property.label: pIC50

Solved cases below.
C[C@]12C=CC(=O)N[C@@H]1CC[C@@H]1[C@@H]2CC[C@]2(C)[C@@H](C(=O)Nc3ccc(OCCCCCNc4ccc5c(c4)C(=O)N(C4CCC(=O)NC4=O)C5=O)cc3)CC[C@@H]12 (stereo partly drawn) [C20]: < 6.00
C[C@]12C=CC(=O)N[C@@H]1CC[C@@H]1[C@@H]2CC[C@]2(C)[C@@H](C(=O)Nc3cccc(OCCCCCCNc4cccc5c4C(=O)N(C4CCC(=O)NC4=O)C5=O)c3)CC[C@@H]12 (stereo partly drawn) [C35]: < 6.00
C[C@]12C=CC(=O)N[C@@H]1CC[C@@H]1[C@@H]2CC[C@]2(C)[C@@H](C(=O)Nc3cccc(OCCCCNc4ccc5c(c4)C(=O)N(C4CCC(=O)NC4=O)C5=O)c3)CC[C@@H]12 (stereo partly drawn) [C32]: < 6.00
C[C@]12C=CC(=O)N[C@@H]1CC[C@@H]1[C@@H]2CC[C@]2(C)[C@@H](C(=O)NCCNc3ccc4c(c3)C(=O)N(C3CCC(=O)NC3=O)C4=O)CC[C@@H]12 (stereo partly drawn) [C2]: < 6.00
C[C@]12C=CC(=O)N[C@@H]1CC[C@@H]1[C@@H]2CC[C@]2(C)[C@@H](C(=O)Nc3cccc(N[C@@H]4CCC[C@@H](Nc5cccc6c5C(=O)N([C@@H]5CCC(=O)NC5=O)C6=O)C4)c3)CC[C@@H]12 [C64]: 8.00 to 10.00

Recorded pIC50 for C[C@]12C=CC(=O)N[C@@H]1CC[C@@H]1[C@@H]2CC[C@]2(C)[C@@H](C(=O)Nc3cccc(OCCCNc4cccc5c4C(=O)N(C4CCC(=O)NC4=O)C5=O)c3)CC[C@@H]12 (stereo partly drawn) [C29] , please? 8.00 to 10.00

###

# System: PC-3 cells
# protocol.details: Anti-proliferative toxicity against prostate cancer cell line PC-3 (CCK8)
# Assay type: cell-based, human
# settings: Homo sapiens, 72 h, 3 days
Each record here notes measured IC50.

// known answers, use as guide
C[C@]12C=CC(=O)N[C@@H]1CC[C@@H]1[C@@H]2CC[C@]2(C)[C@@H](C(=O)N3CCC(CN4CCN(c5cccc6c5C(=O)N(C5CCC(=O)NC5=O)C6=O)CC4)CC3)CC[C@@H]12 (stereo partly shown) [C13]: > 1000 nM
C[C@]12C=CC(=O)N[C@@H]1CC[C@@H]1[C@@H]2CC[C@]2(C)[C@@H](C(=O)NCCCCCCNc3ccc4c(c3)C(=O)N(C3CCC(=O)NC3=O)C4=O)CC[C@@H]12 (stereo partly shown) [C10]: > 1000 nM

Test system PC-3 cells; read-out IC50; what value for C[C@]12C=CC(=O)N[C@@H]1CC[C@@H]1[C@@H]2CC[C@]2(C)[C@@H](C(=O)Nc3ccc(Cl)c(OCCCNc4cccc5c4C(=O)N(C4CCC(=O)NC4=O)C5=O)c3)CC[C@@H]12 (stereo partly shown) [C51] ? > 1000 nM

Short answer please: IC50, PC-3 cells, entry C[C@]12C=CC(=O)N[C@@H]1CC[C@@H]1[C@@H]2CC[C@]2(C)[C@@H](C(=O)NCCNc3cccc4c3C(=O)N(C3CCC(=O)NC3=O)C4=O)CC[C@@H]12 (stereo partly shown) [C1] > 1000 nM

Tell me reported IC50 for C[C@]12C=CC(=O)N[C@@H]1CC[C@@H]1[C@@H]2CC[C@]2(C)[C@@H](C(=O)Nc3ccc(OCCCCCCCCNc4cccc5c4C(=O)N(C4CCC(=O)NC4=O)C5=O)cc3)CC[C@@H]12 (stereo partly shown) [C25] , tested with PC-3 cells. > 1000 nM

I'm curious: which IC50 was measured for C[C@]12C=CC(=O)N[C@@H]1CC[C@@H]1[C@@H]2CC[C@]2(C)[C@@H](C(=O)Nc3cccc(N[C@@H]4CCC[C@@H](Nc5cccc6c5C(=O)N(C5CCC(=O)NC5=O)C6=O)C4)c3)CC[C@@H]12 (stereo partly shown) [C59] tested on PC-3 cells? 0.1 to 10 nM

So what IC50 did C[C@]12C=CC(=O)N[C@@H]1CC[C@@H]1[C@@H]2CC[C@]2(C)[C@@H](C(=O)Nc3cccc(OCCCNc4cccc5c4CN(C4CCC(=O)NC4=O)C5=O)c3)CC[C@@H]12 (stereo partly shown) [C41] get with PC-3 cells? > 1000 nM

Checklist item: IC50 tested on PC-3 cells, entry C[C@]12C=CC(=O)N[C@@H]1CC[C@@H]1[C@@H]2CC[C@]2(C)[C@@H](C(=O)Nc3cc(OCCCNc4cccc5c4C(=O)N(C4CCC(=O)NC4=O)C5=O)ccn3)CC[C@@H]12 (stereo partly shown) [C53] , value? > 1000 nM

Notebook entry, PC-3 cells assay: IC50 of CN1C[C@@H](Nc2cccc(NC(=O)[C@H]3CC[C@H]4[C@@H]5CC[C@H]6NC(=O)C=C[C@]6(C)[C@H]5CC[C@]34C)c2)C[C@H](Nc2cccc3c2C(=O)N(C2CCC(=O)NC2=O)C3=O)C1 (stereo partly shown) [C77] = ? 10 to 1000 nM

Param readout = IC50; param system = PC-3 cells; param query = C[C@]12C=CC(=O)N[C@@H]1CC[C@@H]1[C@@H]2CC[C@]2(C)[C@@H](C(=O)NCCCCNc3ccc4c(c3)C(=O)N(C3CCC(=O)NC3=O)C4=O)CC[C@@H]12 (stereo partly shown) [C6] ; response: value > 1000 nM
